Assay: gradient 5% acetonitrile 3 min, to 50% in 2 min, to 85% in 15 min, held 3 min, 100 µL/min
Details: column: Zorbax Extend-C18 2.1 x 50 mm; eluents: water / acetonitrile, 0.1% formic acid
Rule: RP-LC retention time below 700 s gives 1, anything at or above gives 0.

{"columns": ["Compound", "Class Label"],
 "data": [
  ["CCOC(=O)C1=C(CN2CCCC(C(=O)OCC)C2)NC(=O)NC1c1ccc(C)cc1 (centres undefined)", 1],
  ["CCOC(=O)C(C)Oc1cccc2c(=O)n(CC(=O)NCc3ccco3)ccc12 (centres undefined)", 0],
  ["CCOc1ccc(-c2nc(C3CC(=O)N(c4ccc(C)cc4)C3)no2)cc1OCC (centres undefined)", 0],
  ["Cc1nc(-c2csc(S(=O)(=O)N3CCN(c4ccccc4Cl)CC3)c2)sc1C", 0],
  ["COc1ccccc1NC(=O)N1CCC(CNS(=O)(=O)c2cc(C)ccc2C)CC1", 0],
  ["Cc1c2c(nn1-c1ccc(SCc3ccccc3Cl)nn1)CCC2", 0],
  ["c1ccc(-c2nc(C3CC3)no2)c(OC2CCNC2)c1 (centres undefined)", 1],
  ["CC(C)c1ccc(-c2noc(N3CCC(C(=O)N4CCOCC4)CC3)n2)cc1", 0],
  ["Cc1ccc(Nc2nc(N3CCN(C(=O)c4ccco4)CC3)nc3[nH]ncc23)cc1", 1],
  ["CN(C)c1ccc(-c2nc3cnccn3c2Nc2ccccc2)cc1", 0],
  ["COc1cc(NC(=O)Cn2nc3cc(-c4ccccc4)nc(C)n3c2=O)cc(OC)c1", 0],
  ["Cc1ccc(CN2C(=O)COc3ccc(C(=O)NCc4ccc5c(c4)OCO5)cc32)cc1", 0],
  ["CN(C)C(=O)C1CCc2nc(N3CCN(C(=O)C4CCC4)CC3)sc2C1 (centres undefined)", 1],
  ["Cc1ccc(Nc2c(-c3ccc(Br)cc3)nc3cnccn23)c(Br)c1", 0],
  ["COc1ccc(CNC(=O)N2CCC3(C2)C(=O)N(C)c2ccc(OC)cc23)cc1 (centres undefined)", 0],
  ["CN(C)c1ccc(C(=O)NCc2nn(C)c3ccccc23)cc1", 0],
  ["CC(C)CCNC(=O)Cn1c(=O)c2cccn2c2ccc(F)cc21", 0],
  ["CCOC(=O)C1CCN(C(=O)C2CCCN(c3nc4ccccc4[nH]3)C2)CC1 (centres undefined)", 1],
  ["CCOC(=O)C1CCCN(Cc2cn3cc(F)ccc3n2)C1 (centres undefined)", 1],
  ["COc1cccc(Cc2nc(-c3cccc(-c4ccn[nH]4)c3)no2)c1", 0],
  ["COc1ccc(NC(=O)C2CC(=O)N(c3ccc4c(c3)CCN4C(C)=O)C2)c(OC)c1 (centres undefined)", 1],
  ["Cc1cccc(S(=O)(=O)N2CCc3nc(-c4ccc(Cl)cc4)ncc3C2)c1", 0],
  ["Cc1[nH]c2ccccc2c1C(=O)C(=O)Nc1ccccc1F", 0],
  ["O=C(NC1CCOCC1)c1ccc(-c2cc(-c3cn[nH]c3-c3ccccn3)ccn2)cc1", 1],
  ["CCOC(=O)c1ccc(NC(=O)CSc2nnc(-c3cccn(CC)c3=O)n2C)cc1", 0],
  ["CCC(C)NC(=O)c1c(C)oc2ccn(Cc3ccc(F)cc3)c(=O)c12 (centres undefined)", 0],
  ["Cc1cc(-c2nnc(-c3ccccc3)o2)c(C)n1CC(=O)NCc1ccco1", 0],
  ["CCN1C(=O)c2cccnc2Sc2cc(NC(=O)c3ccc(Cl)cc3OC)ccc21", 0],
  ["Cc1nnc(SCC(=O)N2CCN(c3nnnn3-c3ccccc3)CC2)s1", 1],
  ["CNCc1ccc(-c2cccc(C(F)(F)F)c2)o1", 1],
  ["COc1ccc(C(=O)NCCc2nc3cccnc3n2C(C)C)cc1", 1],
  ["Cc1ccc2c(=O)c(S(=O)(=O)c3ccccc3)cn(Cc3cccc(Cl)c3)c2n1", 0],
  ["O=C(Nc1ccccc1)N1CCc2nc(-c3ccc(Cl)cc3)ncc2C1", 0],
  ["CCc1csc(-c2cn(CC(=O)Nc3ccc(OC)c(Cl)c3)cn2)n1", 0],
  ["CC1CCN(S(=O)(=O)c2cc(-c3nnc(C4CCCC4)o3)co2)CC1", 0]
]}

###

Experiment: gradient 5% acetonitrile 3 min, to 50% in 2 min, to 85% in 15 min, held 3 min, 100 µL/min
Conditions: column: Zorbax Extend-C18 2.1 x 50 mm; eluents: water / acetonitrile, 0.1% formic acid
Attribute Measured: RP-LC retention time (s)

{"columns": ["Compound", "Experimental Value"],
 "data": [
  ["Cc1nc(-c2ccc3c(c2)n(CC(=O)NCCC2=CCCCC2)c(=O)n3C(C)C)no1", 915],
  ["Cc1nc(C(=O)Nc2ccc(F)c(C)c2)c(C)o1", 918],
  ["CCOC(=O)N1CCN(c2cc(C(=O)O)c3cc(NC(=O)c4ccc(OC)cc4)ccc3n2)CC1", 630],
  ["O=C(NCc1ccc(F)c(Cl)c1)C1CCN(c2ccc(SCc3ccccc3)nn2)CC1", 839],
  ["CCc1nccn1Cc1noc(-c2cccc(C)c2)n1", 658],
  ["COc1ccc(-c2c(C)noc2NC(C)=O)cc1S(=O)(=O)N1CCCCCC1", 788],
  ["O=C(CCCN1C(=O)c2cccc3cccc(c23)C1=O)N1CCN(c2ccccc2)CC1", 866],
  ["Cc1cccc(NS(=O)(=O)c2cc(-c3[nH]ncc3C(=O)N3CCCC3)oc2C)c1", 716],
  ["COc1cccc(NC(=O)CN2C(=O)CC(c3cccs3)=Nc3ccccc32)c1", 898]
]}

###

Assay: gradient 5% acetonitrile 3 min, to 50% in 2 min, to 85% in 15 min, held 3 min, 100 µL/min
Settings: column: Zorbax Extend-C18 2.1 x 50 mm; eluents: water / acetonitrile, 0.1% formic acid

{"columns": ["Compound", "RP-LC retention time / s"],
 "data": [
  ["O=S(=O)(NCc1ccc(F)cc1)c1ccc(N2CCCCS2(=O)=O)cc1", 777],
  ["CC(=O)N1CCC(CC(=O)N2CCCCCCN(C)C(=O)[C@@H]3CCC[C@@H]32)CC1", 663],
  ["O=C(Cn1c(=O)oc2ccc(C(=O)N3CCCCC3)cc21)N1CCc2ccccc2C1", 804],
  ["COC(=O)c1ccc(C(=O)NCCN2CCN(C(=O)OC(C)(C)C)CC2)cc1", 580],
  ["Cc1nn(CC(=O)NC(C)(C)C)c(C)c1S(=O)(=O)N1CCC(C(=O)N2CCC(C)CC2)CC1", 794],
  ["Cc1cccc(CNC(=O)c2cn3ccncc3n2)c1", 705],
  ["C=CCn1c(=O)c2c(nc3n2CC(C)CN3c2cc(C)cc(C)c2)n(C)c1=O (centres undefined)", 1040],
  ["O=C1COc2ccccc2N1Cc1nc(-c2ccc3c(c2)ncn3C2CCCC2)no1", 766],
  ["Cc1ccc(C)c(NC(=O)Cn2nc3n(c2=O)CCCCC3)c1", 722]
]}

###

Assay: gradient 5% acetonitrile 3 min, to 50% in 2 min, to 85% in 15 min, held 3 min, 100 µL/min
Settings: column: Zorbax Extend-C18 2.1 x 50 mm; eluents: water / acetonitrile, 0.1% formic acid
Rule: RP-LC retention time below 700 s gives true (1), anything at or above gives false (0).

{"columns": ["Compound", "Class Label"],
 "data": [
  ["COc1cccc(C(=O)NCCN2CCN(c3ccc(Cl)cc3)CC2)c1", "false (0)"],
  ["O=C(Cc1cccs1)NC1CCN(c2nnc3ccc(Cl)cn23)CC1", "true (1)"],
  ["O=C(c1ccco1)C(C(c1cccc(Cl)c1)N1CCOCC1)N1CCOCC1 (stereo not drawn)", "false (0)"],
  ["COc1ccccc1NS(=O)(=O)c1cn(CC(C)C)c2ncccc12", "false (0)"],
  ["Cn1c(N2CCCC(C(=O)NC3CCN(Cc4ccccc4)CC3)C2)cc(=O)n(C)c1=O (stereo not drawn)", "true (1)"],
  ["O=C1NCCCn2cc(S(=O)(=O)Nc3ccc(F)cc3Cl)cc21", "true (1)"],
  ["Cc1ccccc1-c1nc2cnccn2c1NCCC(=O)NCc1ccccc1", "true (1)"],
  ["CC1=Nc2ccccc2N=C(NC(=O)Nc2cccc(Cl)c2)C1c1ccc(Cl)cc1 (stereo not drawn)", "false (0)"],
  ["Oc1ccc(-c2nc3ncccn3c2Nc2cccc(C(F)(F)F)c2)cc1", "false (0)"],
  ["CCCCn1c(=O)c2ccccc2n(Cc2nc(-c3ccccc3Cl)no2)c1=O", "false (0)"],
  ["CN1CC=C(c2noc(CCC(=O)N3CCC(c4ccccc4)C3)n2)CC1 (stereo not drawn)", "true (1)"],
  ["CCc1nnc2ccc(-c3noc(-c4cc(F)ccc4F)n3)cn12", "false (0)"],
  ["Cn1c(CCNC(=O)c2cccc(C(F)(F)F)c2)nc2cccnc21", "true (1)"],
  ["Cn1c(N2CCN(C(=O)c3c(F)cccc3F)CC2)cc(=O)n(C)c1=O", "true (1)"],
  ["Cc1cc(-c2ccc(S(=O)(=O)N3CCC(C(=O)NC4CCCCCC4)CC3)o2)n[nH]1", "false (0)"],
  ["Cc1nc(-c2cn(C)c3ncccc23)sc1C(=O)NC1CCCCCC1", "false (0)"],
  ["CN1CCN(CC(=O)N2CCNC(=O)C2CC(=O)Nc2cccc(C(F)(F)F)c2)CC1 (stereo not drawn)", "true (1)"],
  ["CSc1ccc(-c2nc3ccccn3c2NC2CCCCC2)cc1", "false (0)"],
  ["COc1ccccc1C(=O)N1CC(Oc2cccc(-c3nc(-c4ccccc4)no3)c2)C1", "false (0)"],
  ["O=S(=O)(c1ccccc1)c1nnn2c1nc(NCc1ccc(F)cc1)c1sccc12", "false (0)"],
  ["CC1Cc2ccccc2N1S(=O)(=O)c1cc2c3c(c1)CCC(=O)N3CCC2 (stereo not drawn)", "false (0)"],
  ["CCc1nc(-c2cccc(-c3noc(CNC(=O)Cc4ccccc4)n3)c2)cs1", "false (0)"],
  ["CCCOc1cn(-c2ccc(F)cc2)nc1C(=O)N1CCC(C(=O)OCC)CC1", "false (0)"],
  ["O=C(NC1CC1)[C@@H]1C[C@H](Oc2cccnc2)CN1C(=O)c1ccc2ncccc2c1", "true (1)"],
  ["COc1cccc(CNC(=O)N2CCN(Cc3nc4ccccc4o3)CC2)c1", "true (1)"],
  ["C[C@H]1CC[C@@H]2N(C1)C[C@H]1[C@@H]3C[C@H]4[C@@H](CC(=O)[C@H]5C[C@@H](O)CC[C@@]54C)[C@@H]3CC[C@H]1[C@]2(C)O", "true (1)"],
  ["CCn1c(C)c(CN2CCC(C(=O)NCc3ccc(C)cc3)CC2)c2ccccc21", "false (0)"],
  ["CCc1noc(NC(C)=O)c1-c1ccc(C)c(S(=O)(=O)NC2CCCCC2)c1", "false (0)"],
  ["O=C(c1ccccc1)N1C[C@@H]2C[C@H]1C[C@@H]2NS(=O)(=O)c1cccnc1", "true (1)"],
  ["Cc1c(C(=O)N2CCOCC2)sc2nc(-c3ccccc3)c(NC(C)(C)C)n12", "false (0)"],
  ["Cc1sc2ccn(CC(C)C)c(=O)c2c1C(=O)N(C)Cc1ccccc1", "false (0)"],
  ["Cc1nn(C)cc1C(=O)Nc1nc2ccccc2[nH]1", "true (1)"],
  ["Cc1ccc(-c2nc3ncccn3c2NC(=O)c2cccc(C(F)(F)F)c2)cc1", "false (0)"],
  ["Cc1nccn1-c1ccc(N2CCN(C(=O)c3cc4ccccc4o3)CC2)nn1", "true (1)"],
  ["Cc1cc(N2CCN(S(=O)(=O)c3cc(F)ccc3C)CC2)nc(N2CCCC2)n1", "false (0)"],
  ["CCN(CC)c1ccc(NC(=O)c2nc3nc(C)cc(C(F)F)n3n2)cc1", "true (1)"]
]}
